Target Of Assay: androgen receptor (AR) (Homo sapiens)
Construct: endogenous in cells; host or cells: VCAP
Sequence (P10275 whole entry): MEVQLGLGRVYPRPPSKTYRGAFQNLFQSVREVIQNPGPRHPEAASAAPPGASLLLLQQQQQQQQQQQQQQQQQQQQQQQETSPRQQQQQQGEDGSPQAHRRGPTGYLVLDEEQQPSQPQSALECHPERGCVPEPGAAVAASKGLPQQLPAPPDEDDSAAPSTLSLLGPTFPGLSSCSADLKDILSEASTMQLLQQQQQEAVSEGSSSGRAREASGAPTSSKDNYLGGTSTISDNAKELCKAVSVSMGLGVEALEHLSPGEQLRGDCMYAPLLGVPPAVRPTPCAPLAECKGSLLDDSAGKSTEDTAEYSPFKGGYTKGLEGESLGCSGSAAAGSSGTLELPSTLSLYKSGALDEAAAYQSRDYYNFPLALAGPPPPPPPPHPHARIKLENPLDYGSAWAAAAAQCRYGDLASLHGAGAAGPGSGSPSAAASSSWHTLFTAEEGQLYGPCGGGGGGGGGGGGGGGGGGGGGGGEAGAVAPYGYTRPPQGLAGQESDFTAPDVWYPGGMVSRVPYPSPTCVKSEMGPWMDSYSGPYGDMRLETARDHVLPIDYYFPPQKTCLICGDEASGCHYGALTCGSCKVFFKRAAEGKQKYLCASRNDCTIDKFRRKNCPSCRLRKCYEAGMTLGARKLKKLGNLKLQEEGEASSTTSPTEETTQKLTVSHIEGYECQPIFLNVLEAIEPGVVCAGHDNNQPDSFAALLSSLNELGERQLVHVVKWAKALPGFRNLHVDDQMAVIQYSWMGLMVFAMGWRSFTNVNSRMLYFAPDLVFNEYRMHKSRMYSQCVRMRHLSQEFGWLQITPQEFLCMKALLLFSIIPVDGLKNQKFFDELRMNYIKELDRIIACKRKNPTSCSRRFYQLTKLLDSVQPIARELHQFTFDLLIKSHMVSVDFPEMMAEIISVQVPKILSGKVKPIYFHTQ
Experimental Details: AR degradation activity in VCAP cells (Western blot)
Format: cell-based
Setup Conditions: 24 hours after administration, DC50 = concentration needed for 50% target protein degradation
Quantity Measured: DC50

Known results for compounds:
{"Compound": "N#Cc1ccc(O[C@H]2CC[C@H](NC(=O)c3ccc(N4CCC(CN5CCN(c6ccc7c(c6)CN([C@H]6CCC(=O)NC6=O)C7=O)CC5)CC4)c(F)c3)CC2)c2cccnc12", "DC50": "< 10 nM"}
{"Compound": "N#Cc1ccc(O[C@H]2CC[C@H](NC(=O)c3ccc(N4CCC(CN5CCN(c6ccc7c(c6)C(=O)N(C6CCC(=O)NC6=O)C7=O)CC5)CC4)nn3)CC2)c2cccnc12 (stereo partly drawn)", "DC50": "< 10 nM"}

Now look at this one.
Look up and state reported DC50 for N#Cc1ccc(OC2CCC(NC(=O)c3ccc(N4CCC(CN5CCN(c6cc7c(cc6F)C(=O)N(C6CCC(=O)NC6=O)C7=O)CC5)CC4)nn3)CC2)c2cccnc12 (stereo not drawn) < 10 nM

From: patent US11535606B2
